# viability at 4 µM annotations
- Test system: SMMC-7721
- experimental-details: Induction of apoptosis in human SMMC7721 cells assessed as viable cells at 4 uM incubated for 48 hrs by Annexin-V-FITC/propidium iodide staining based flow cytometry (Rvb=93.5%)
- Format: functional
- measurement-context: SMMC-7721, 48 h, read-out: Activity
// return numeric value only (unit: %, not printed)

Cn1c(SCc2ccc(C(=O)Nc3ccccc3N)cc2)nc2cc(Br)ccc2c1=O	26.9
CC(=O)Nc1ccc(C(=O)Nc2ccccc2N)cc1 [TACEDINALINE]	65.7
Nc1ccccc1NC(=O)c1ccc(CNC(=O)OCc2cccnc2)cc1 [ENTINOSTAT]	53.9

Let's switch to this molecule now.
Ask: Would you kindly share the measured viability at 4 µM for COc1ccc2c(=O)n(C)c(SCc3ccc(C(=O)Nc4ccccc4N)cc3)nc2c1 ?
Reply: 21.7
